Each recorded value in this set is attributed to Sander's compilation of Henry's law constants (doi:10.1021/j100876a049).

Experiment: Henry solubility constant Hcp at 298.15 K (mol/(m3 Pa))
Conditions: reference: McAuliffe (1966)
recorded endpoint: Henry solubility constant Hcp
// no unit string in output, number only

What does the data say about its Henry solubility constant Hcp? Entry: CC(C)C [2-methylpropane]
8.5e-06

What does the data say about its Henry solubility constant Hcp? Entry: C=C [ethene]
4.7e-05

What does the data say about its Henry solubility constant Hcp? Entry: C=CC [propene]
4.8e-05

What does the data say about its Henry solubility constant Hcp? Entry: C#CCC [1-butyne]
0.00054

What does the data say about its Henry solubility constant Hcp? Entry: CCCC [butane]
1.1e-05

What does the data say about its Henry solubility constant Hcp? Entry: C=CC(C)C [3-methyl-1-butene]
1.9e-05

What does the data say about its Henry solubility constant Hcp? Entry: C#CC [propyne]
0.00092

What does the data say about its Henry solubility constant Hcp? Entry: C=C(C)C [2-methylpropene]
4.8e-05

What does the data say about its Henry solubility constant Hcp? Entry: C=CCC [1-butene]
4e-05

What does the data say about its Henry solubility constant Hcp? Entry: CC(C)(C)C [dimethylpropane]
4.7e-06
